Kindly supply the reported MIC values for the records listed here.
System: Salmonella typhi
Experimental Details: Antibacterial activity against Salmonella typhi MTCC 98 assessed as growth inhibition after overnight incubation by NCCLS broth microdilution method
Assay type: functional, Salmonella enterica subsp. enterica serovar Typhi
Condition: Salmonella enterica
Give the value; after it, write the unit.

Worked examples follow.
Molecule | MIC
CC1(C)S[C@@H]2[C@H](NC(=O)[C@H](N)c3ccccc3)C(=O)N2[C@H]1C(=O)O [AMPICILLIN] | 100 mg/L
Cc1ccc2nc(Oc3ccc(C#N)cc3)c(C3C(C#N)=C(N)N(c4cc(F)ccc4F)C4=C3C(=O)CCC4)cc2c1 (stereo unspecified) | 50 mg/L
COc1ccc2nc(Oc3ccc(C#N)cc3)c(C3C(C#N)=C(N)N(c4cccc(C(F)(F)F)c4)C4=C3C(=O)CCC4)cc2c1 (stereo unspecified) | 125 mg/L
N#CC1=C(N)N(c2cccc(C(F)(F)F)c2)C2=C(C(=O)CCC2)C1c1cc2cc(Cl)ccc2nc1Oc1ccc(C#N)cc1 (stereo unspecified) | 200 mg/L

For each listed entry, give its MIC.
1. Cc1ccc2nc(Oc3ccc(C#N)cc3)c(C=O)cc2c1
2. N#CC1=C(N)N(c2cc(F)ccc2F)C2=C(C(=O)CCC2)C1c1cc2ccccc2nc1Oc1ccc(C#N)cc1 (stereo unspecified)
3. O=C(O)c1cn(C2CC2)c2cc(N3CCNCC3)c(F)cc2c1=O [CIPROFLOXACIN]
4. CC1(C)CC(=O)C2=C(C1)N(c1cccc(C(F)(F)F)c1)C(N)=C(C#N)C2c1cc2cc(Cl)ccc2nc1Oc1ccc(C#N)cc1 (stereo unspecified)
5. CC1(C)CC(=O)C2=C(C1)N(c1ccc(F)c(F)c1)C(N)=C(C#N)C2c1cc2cc(Cl)ccc2nc1Oc1ccc(C#N)cc1 (stereo unspecified)

Response:
["125 mg/L", "250 mg/L", "25 mg/L", "125 mg/L", "200 mg/L"]

For each listed entry, give its MIC.
1. N#CC1=C(N)N(c2ccc(F)c(F)c2)C2=C(C(=O)CCC2)C1c1cc2cc(Cl)ccc2nc1Oc1ccc(C#N)cc1 (stereo unspecified)
2. N#CC1=C(N)N(c2cc(F)ccc2F)C2=C(C(=O)CCC2)C1c1cc2cc(Cl)ccc2nc1Oc1ccc(C#N)cc1 (stereo unspecified)
3. N#Cc1ccc(Oc2nc3ccccc3cc2C=O)cc1
4. Cc1ccc2nc(Oc3ccc(C#N)cc3)c(C3C(C#N)=C(N)N(c4cccc(C(F)(F)F)c4)C4=C3C(=O)CC(C)(C)C4)cc2c1 (stereo unspecified)
5. Cc1ccc2nc(Oc3ccc(C#N)cc3)c(C3C(C#N)=C(N)N(c4cc(F)ccc4F)C4=C3C(=O)CC(C)(C)C4)cc2c1 (stereo unspecified)
6. COc1ccc2nc(Oc3ccc(C#N)cc3)c(C=O)cc2c1
7. Cc1ccc2nc(Oc3ccc(C#N)cc3)c(C3C(C#N)=C(N)N(c4ccc(F)c(F)c4)C4=C3C(=O)CC(C)(C)C4)cc2c1 (stereo unspecified)

Response:
1. 250 mg/L
2. 62.5 mg/L
3. 100 mg/L
4. 100 mg/L
5. 200 mg/L
6. 100 mg/L
7. 250 mg/L

* * *

Experimental Details: Toxicity in brine shrimps cysts assessed as mortality at 40 ug/mL after 24 hrs relative to control
Format: organism-based
Condition: artemia, in vivo
Quantity Kind: mortality at 24 h, 40 ug/mL (%)
One number for each entry, in %.

Molecule | Reading
N#CC1=C(N)N(c2cccc(C(F)(F)F)c2)C2=C(C(=O)CCC2)C1c1cc2cc(Cl)ccc2nc1Oc1ccc(C#N)cc1 (stereo not given) | 50
Cc1ccc2nc(Oc3ccc(C#N)cc3)c(C3C(C#N)=C(N)N(c4cccc(C(F)(F)F)c4)C4=C3C(=O)CC(C)(C)C4)cc2c1 (stereo not given) | 80
Cc1ccc2nc(Oc3ccc(C#N)cc3)c(C3C(C#N)=C(N)N(c4cc(F)ccc4F)C4=C3C(=O)CC(C)(C)C4)cc2c1 (stereo not given) | 70

For each listed entry, give its mortality at 24 h, 40 ug/mL.
1. CC1(C)CC(=O)C2=C(C1)N(c1cccc(C(F)(F)F)c1)C(N)=C(C#N)C2c1cc2cc(Cl)ccc2nc1Oc1ccc(C#N)cc1 (stereo not given)
2. N#CC1=C(N)N(c2ccc(F)c(F)c2)C2=C(C(=O)CCC2)C1c1cc2cc(Cl)ccc2nc1Oc1ccc(C#N)cc1 (stereo not given)

Response:
1. 70
2. 80

* * *

Experimental Details: Toxicity in brine shrimps cysts assessed as mortality at 5 ug/ml after 24 hrs relative to control
Type: organism-based
Condition: artemia, in vivo
Quantity Kind: mortality at 24 h, 5 ug/ml

Worked examples follow.
Molecule | mortality at 24 h, 5 ug/ml
N#CC1=C(N)N(c2ccc(F)c(F)c2)C2=C(C(=O)CCC2)C1c1cc2cc(Cl)ccc2nc1Oc1ccc(C#N)cc1 (stereo not given) | 20%
Cc1ccc2nc(Oc3ccc(C#N)cc3)c(C3C(C#N)=C(N)N(c4cc(F)ccc4F)C4=C3C(=O)CC(C)(C)C4)cc2c1 (stereo not given) | 0%
N#CC1=C(N)N(c2cccc(C(F)(F)F)c2)C2=C(C(=O)CCC2)C1c1cc2cc(Cl)ccc2nc1Oc1ccc(C#N)cc1 (stereo not given) | 0%
CC1(C)CC(=O)C2=C(C1)N(c1cccc(C(F)(F)F)c1)C(N)=C(C#N)C2c1cc2cc(Cl)ccc2nc1Oc1ccc(C#N)cc1 (stereo not given) | 10%

Shift focus to the following entry.
Prompt: For the molecule Cc1ccc2nc(Oc3ccc(C#N)cc3)c(C3C(C#N)=C(N)N(c4cccc(C(F)(F)F)c4)C4=C3C(=O)CC(C)(C)C4)cc2c1 (stereo not given) , report mortality at 24 h, 5 ug/ml.
Response: 10%

* * *

Kindly supply the reported mortality at 24 h, 10 ug/mL values for the records listed here.
Experimental Details: Toxicity in brine shrimps cysts assessed as mortality at 10 ug/mL after 24 hrs relative to control
Format: organism-based
Condition: artemia, in vivo
Numbers only, in %.

Worked examples follow.
Compound | mortality at 24 h, 10 ug/mL (%)
N#CC1=C(N)N(c2cccc(C(F)(F)F)c2)C2=C(C(=O)CCC2)C1c1cc2cc(Cl)ccc2nc1Oc1ccc(C#N)cc1 (stereo not given) | 10
Cc1ccc2nc(Oc3ccc(C#N)cc3)c(C3C(C#N)=C(N)N(c4cc(F)ccc4F)C4=C3C(=O)CC(C)(C)C4)cc2c1 (stereo not given) | 10
N#CC1=C(N)N(c2ccc(F)c(F)c2)C2=C(C(=O)CCC2)C1c1cc2cc(Cl)ccc2nc1Oc1ccc(C#N)cc1 (stereo not given) | 40

For each listed entry, give its mortality at 24 h, 10 ug/mL.
1. CC1(C)CC(=O)C2=C(C1)N(c1cccc(C(F)(F)F)c1)C(N)=C(C#N)C2c1cc2cc(Cl)ccc2nc1Oc1ccc(C#N)cc1 (stereo not given)
2. Cc1ccc2nc(Oc3ccc(C#N)cc3)c(C3C(C#N)=C(N)N(c4cccc(C(F)(F)F)c4)C4=C3C(=O)CC(C)(C)C4)cc2c1 (stereo not given)

Response:
1: 20; 2: 30

* * *

Kindly supply the reported MIC values for the records listed here.
Tested on: Aspergillus fumigatus
Experimental Details: Antifungal activity against Aspergillus fumigatus MTCC 3008 assessed as growth inhibition after overnight incubation by NCCLS broth microdilution method
Type: functional
Numbers only, in µg/mL.

For each listed entry, give its MIC.
1. Cc1ccc2nc(Oc3ccc(C#N)cc3)c(C=O)cc2c1
2. N#CC1=C(N)N(c2cc(F)ccc2F)C2=C(C(=O)CCC2)C1c1cc2cc(Cl)ccc2nc1Oc1ccc(C#N)cc1 (stereo not given)
3. COc1ccc2nc(Oc3ccc(C#N)cc3)c(C3C(C#N)=C(N)N(c4cccc(C(F)(F)F)c4)C4=C3C(=O)CC(C)(C)C4)cc2c1 (stereo not given)

Response:
250
1000
500

Prompt: State recorded MIC with Aspergillus fumigatus, entry COc1ccc2nc(Oc3ccc(C#N)cc3)c(C3C(C#N)=C(N)N(c4cccc(C(F)(F)F)c4)C4=C3C(=O)CCC4)cc2c1 (stereo not given) , no comment.
Response: 1000

* * *

Experimental Details: Toxicity in brine shrimps cysts assessed as mortality at 20 ug/mL after 24 hrs relative to control
Format: organism-based
Condition: artemia, in vivo
Kindly supply the reported mortality at 24 h, 20 ug/mL values for the records listed here.
Answers are plain numbers, in %.

Worked examples follow.
Compound | Measure Unit | mortality at 24 h, 20 ug/mL
N#CC1=C(N)N(c2cccc(C(F)(F)F)c2)C2=C(C(=O)CCC2)C1c1cc2cc(Cl)ccc2nc1Oc1ccc(C#N)cc1 (stereo not given) | % | 20
Cc1ccc2nc(Oc3ccc(C#N)cc3)c(C3C(C#N)=C(N)N(c4cccc(C(F)(F)F)c4)C4=C3C(=O)CC(C)(C)C4)cc2c1 (stereo not given) | % | 50
N#CC1=C(N)N(c2ccc(F)c(F)c2)C2=C(C(=O)CCC2)C1c1cc2cc(Cl)ccc2nc1Oc1ccc(C#N)cc1 (stereo not given) | % | 60

For each listed entry, give its mortality at 24 h, 20 ug/mL.
1. CC1(C)CC(=O)C2=C(C1)N(c1cccc(C(F)(F)F)c1)C(N)=C(C#N)C2c1cc2cc(Cl)ccc2nc1Oc1ccc(C#N)cc1 (stereo not given)
2. Cc1ccc2nc(Oc3ccc(C#N)cc3)c(C3C(C#N)=C(N)N(c4cc(F)ccc4F)C4=C3C(=O)CC(C)(C)C4)cc2c1 (stereo not given)

Response:
1: 40; 2: 20
